Source of measurements: patent US9446047B2

# targetEntity: RORγ-LBD (RORγt) (Homo sapiens, UniProt P51449)
# Construct: the 6-His-(GST) RORγ-LBD was used which expressed and purified from baculovirus infected Sf-21 insect cells; made in house; host or cells: baculovirus-infected Sf-21 insect cells
# assayNotes: TR-FRET RORγt Binding Assay
# experimentalConditions: 6-His(GST)RORγ-LBD, SRC1_2 peptide, read-out: RORγt Binding
pIC50: −log10 of the molar value.
# pIC50 values compiled below

| molecule | pIC50 |
| --- | --- |
| COc1cc2c(c(N3CCC(C)CC3)c1OC)CC(Cc1ncccc1C(F)(F)F)C2=O (centres unmarked) | < 6.00 |
| COc1cc2c(c(N3CCN(C)CC3)c1OC)CC(Cc1ncccc1C(F)(F)F)C2=O (centres unmarked) | < 6.00 |
| COc1cc2c(cc1N1CCN(C)C(C)C1)CC(Cc1ccc(Cl)cc1F)C2=O (centres unmarked) | < 6.00 |
| COc1cc2c(cc1N1CCC(F)CC1)CC(Cc1ccc(SC(F)(F)F)cc1)C2=O (centres unmarked) | > 6.30 |
| COc1ccc2c(c1Cl)CC(Cc1ccc(SC(F)(F)F)cc1)C2=O (centres unmarked) | > 6.30 |

Request: Can you share its pIC50? I mean this molecule: COc1cc2c(cc1NC1CCN(C)CC1)CC(Cc1ccc(SC(F)(F)F)cc1)C2=O (centres unmarked)
Result: < 6.00

Request: What value of pIC50 has been reported for the following molecule? COc1cc2c(cc1N1CCN(C)CC1)CC(Cc1cncc(C(O)(C(F)(F)F)C(F)(F)F)c1)C2=O (centres unmarked)
Result: > 6.30

Request: Can you look up the measured pIC50 of COc1cc2c(cc1N1CCN(C)CC1)CC(Cc1cc(C(F)(F)F)cc(C(O)(C(F)(F)F)C(F)(F)F)c1)C2=O (centres unmarked) for me?
Result: > 6.30

###

# targetEntity: RORγt (Homo sapiens)
# Construct: host or cells: IL-17A Prom/LUCPorter HEK 293 cell line (IMGENEX, IML-301)
# Sequence (P51449 1-497 isoform P51449-2): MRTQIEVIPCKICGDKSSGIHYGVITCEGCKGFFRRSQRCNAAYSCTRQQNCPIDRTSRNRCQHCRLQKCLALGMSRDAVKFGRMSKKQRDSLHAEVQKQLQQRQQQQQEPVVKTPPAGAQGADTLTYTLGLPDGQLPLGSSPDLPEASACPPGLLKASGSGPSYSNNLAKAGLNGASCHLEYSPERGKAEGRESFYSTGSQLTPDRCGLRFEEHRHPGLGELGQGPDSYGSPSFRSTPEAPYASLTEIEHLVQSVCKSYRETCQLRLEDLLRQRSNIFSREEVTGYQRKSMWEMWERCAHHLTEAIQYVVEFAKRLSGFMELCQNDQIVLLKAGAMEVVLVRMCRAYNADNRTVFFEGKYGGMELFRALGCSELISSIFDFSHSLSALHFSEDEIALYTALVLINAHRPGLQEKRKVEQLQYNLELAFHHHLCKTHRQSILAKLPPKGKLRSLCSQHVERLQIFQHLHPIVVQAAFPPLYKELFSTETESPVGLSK
# assayNotes: RORγt-activated IL-17A Prom/LUCPorter HEK 293 cells luciferase reporter assay
# Format: cell-based
# experimentalConditions: IL-17A Prom/LUCPorter HEK 293 cells transfected with RORγt, 16 h; read-out: RORγt Cell Specific
metric: IC50

Request: Name the recorded IC50 for COc1cc2c(cc1Cl)CC(Cc1ncccc1C(F)(F)F)C2=O (stereo not shown) .
Result: > 1000 nM

Request: Return reported IC50; argument: COc1cc2c(cc1N1CCOCC1)CC(Cc1c(Cl)cccc1C(F)(F)F)C2=O (stereo not shown)
Result: > 10000 nM

Request: // query IC50 value for entry COc1cc2c(c(N3CCC(C)CC3)c1OC)CC(Cc1ncccc1C(F)(F)F)C2=O (stereo not shown)
Result: > 1000 nM

Request: I would be grateful if you could share the reported IC50 for COc1cc2c(cc1N1CCOCC1)CC(Cc1cccc(C(O)(C(F)(F)F)C(F)(F)F)n1)C2=O (stereo not shown) .
Result: < 500 nM

###

# assayNotes: Rat pharmacokinetics, intravenous bolus and oral gavage
# Format: in vivo, male Sprague Dawley rats
# experimentalConditions: plasma, PO 10 mg/kg, solution, male Sprague Dawley rats, median (min-max)
metric: Tmax (h)
Give just the number in h; leave the unit off.

Request: Suppose we examine the molecule COc1cc2c(cc1N1CCOCC1)CC(Cc1cccc(OC(F)(F)F)c1)C2=O (stereo not shown) ; what Tmax value has been reported?
Result: 2

###

# targetEntity: RORγ-LBD (RORγt) (Homo sapiens)
# Construct: the 6-His-(GST) RORγ-LBD was used which expressed and purified from baculovirus infected Sf-21 insect cells; made in house; host or cells: baculovirus-infected Sf-21 insect cells
# assayNotes: TR-FRET RORγt Binding Assay
# experimentalConditions: 6-His(GST)RORγ-LBD, SRC1_2 peptide, read-out: RORγt Binding
pIC50: −log10 of the molar value.
// reported pIC50 per item

See these solved cases before continuing.
| compound | targetEntity | pIC50 |
| --- | --- | --- |
| COc1cc2c(cc1-c1ccc(OC(F)(F)F)cc1F)CC(Cc1ncccc1C(F)(F)F)C2=O (centres unmarked) | RORγ-LBD (RORγt) (Homo sapiens) | < 6.00 |
| COc1ccc2c(c1)CC(Cc1ccc(SC(F)(F)F)cc1)C2=O (centres unmarked) | RORγ-LBD (RORγt) (Homo sapiens) | < 6.00 |
| COc1cc2c(cc1N1CCOCC1)CC(Cc1cc(C(F)(F)F)ccc1Cl)C2=O (centres unmarked) | RORγ-LBD (RORγt) (Homo sapiens) | > 6.30 |
| COc1cc2c(cc1N1CCN(C)CC1)CC(Cc1cc(OC(F)(F)F)cc(C(O)(C(F)(F)F)C(F)(F)F)c1)C2=O (centres unmarked) | RORγ-LBD (RORγt) (Homo sapiens) | < 6.00 |
| COc1ccc2c(c1Cl)CC(Cc1ncccc1C(F)(F)F)C2=O (centres unmarked) | RORγ-LBD (RORγt) (Homo sapiens) | > 6.30 |
| COc1cc2c(cc1N1CCOCC1)CC(Cc1cc(Cl)cc(C(F)(F)F)c1)C2=O (centres unmarked) | RORγ-LBD (RORγt) (Homo sapiens) | > 6.30 |

Request: I'd like to know its pIC50. The compound in question is COc1cc2c(cc1N1CCN(C)CC1)CC(Cc1cccc(C(F)(F)F)c1)C2=O (centres unmarked) [compound 156]
Result: < 5.00

Request: Consider the compound shown here: COc1cc2c(cc1Cl)CC(Cc1ncccc1C(F)(F)F)C2=O (centres unmarked) What is its recorded pIC50?
Result: < 6.00

Request: What does the data say about its pIC50? Entry: COc1cc2c(cc1N1CCOCC1)CC(Cc1ccc(Cl)cc1F)C2=O (centres unmarked)
Result: < 6.00

Request: // returns reported pIC50 for input COc1cc2c(cc1N1CCN(C)CC1)CC(Cc1ncccc1C(F)(F)F)C2=O (centres unmarked) [compound 113]
Result: > 6.30

Request: Returns the measured pIC50 for the input compound. Input: CCS(=O)(=O)Oc1cc2c(cc1OC)CC(Cc1ncccc1C(F)(F)F)C2=O (centres unmarked)
Result: > 6.30

###

# targetEntity: RORγt (Homo sapiens, UniProt P51449)
# Construct: host or cells: IL-17A Prom/LUCPorter HEK 293 cell line (IMGENEX, IML-301)
# Sequence (P51449 1-497 isoform P51449-2): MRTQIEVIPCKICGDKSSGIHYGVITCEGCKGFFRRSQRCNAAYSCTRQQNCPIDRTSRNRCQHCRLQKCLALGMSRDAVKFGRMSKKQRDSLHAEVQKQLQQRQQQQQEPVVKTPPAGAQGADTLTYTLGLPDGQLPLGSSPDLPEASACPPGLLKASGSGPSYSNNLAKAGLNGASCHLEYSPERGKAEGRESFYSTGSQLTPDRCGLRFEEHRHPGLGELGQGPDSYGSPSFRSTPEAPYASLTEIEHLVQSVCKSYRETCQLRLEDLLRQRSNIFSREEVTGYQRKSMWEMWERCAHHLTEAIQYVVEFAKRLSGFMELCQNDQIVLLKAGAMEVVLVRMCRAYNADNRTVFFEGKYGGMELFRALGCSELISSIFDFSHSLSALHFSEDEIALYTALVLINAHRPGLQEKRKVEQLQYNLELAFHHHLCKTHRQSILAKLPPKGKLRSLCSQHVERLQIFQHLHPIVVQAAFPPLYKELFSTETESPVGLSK
# assayNotes: RORγt-activated IL-17A Prom/LUCPorter HEK 293 cells luciferase reporter assay
# Format: cell-based
# experimentalConditions: IL-17A Prom/LUCPorter HEK 293 cells transfected with RORγt, 16 h; read-out: RORγt Cell Specific
# Experimental: Antagonistic (or inverse agonistic) effects of the test compounds on the RORγt-activated IL-17A Prom/LUCPorter™ HEK 293 cells were analyzed and IC50 of each compound was evaluated. […] Luciferase activity was analyzed using the luciferase reporter assay reagent (IMGENEX, LS100). The data were analyzed using Excel and Prism software. […]
metric: IC50

| molecule | metric | result |
| --- | --- | --- |
| O=C1c2ccc(O)cc2CC1Cc1ccc(SC(F)(F)F)cc1 (stereo not shown) | IC50 | < 0.5 µM |

Request: # input molecule: COc1cc2c(cc1N1CCOCC1)CC(Cc1ccc(F)cc1F)C2=O (stereo not shown) ; wanted: its IC50
Result: > 10 µM

Request: Please report the recorded IC50 for COc1cc2c(cc1N1CCOCC1)CC(Cc1cc(C(F)(F)F)ccc1NC(=O)C(C)(C)C)C2=O (stereo not shown) .
Result: > 1 µM

Request: What value of measured IC50 is listed for COc1ccc2c(c1)CC(Cc1ncccc1C(F)(F)F)C2=O (stereo not shown) ?
Result: > 1 µM
